Emax values by entry
biological target: F508del in NIH 3T3 cells (Homo sapiens, UniProt P13569, DEL508-508); construct: expressed in transfected cells; experiment: 3T3 assay: membrane potential optical assay for F508del correction; assay type: cell-based; conditions: NIH3T3; NIH 3T3 cells, F508del; read-out: 3T3 Max Activity (%)
Sequence (P13569 with tags, fused parts or gaps DEL508-508): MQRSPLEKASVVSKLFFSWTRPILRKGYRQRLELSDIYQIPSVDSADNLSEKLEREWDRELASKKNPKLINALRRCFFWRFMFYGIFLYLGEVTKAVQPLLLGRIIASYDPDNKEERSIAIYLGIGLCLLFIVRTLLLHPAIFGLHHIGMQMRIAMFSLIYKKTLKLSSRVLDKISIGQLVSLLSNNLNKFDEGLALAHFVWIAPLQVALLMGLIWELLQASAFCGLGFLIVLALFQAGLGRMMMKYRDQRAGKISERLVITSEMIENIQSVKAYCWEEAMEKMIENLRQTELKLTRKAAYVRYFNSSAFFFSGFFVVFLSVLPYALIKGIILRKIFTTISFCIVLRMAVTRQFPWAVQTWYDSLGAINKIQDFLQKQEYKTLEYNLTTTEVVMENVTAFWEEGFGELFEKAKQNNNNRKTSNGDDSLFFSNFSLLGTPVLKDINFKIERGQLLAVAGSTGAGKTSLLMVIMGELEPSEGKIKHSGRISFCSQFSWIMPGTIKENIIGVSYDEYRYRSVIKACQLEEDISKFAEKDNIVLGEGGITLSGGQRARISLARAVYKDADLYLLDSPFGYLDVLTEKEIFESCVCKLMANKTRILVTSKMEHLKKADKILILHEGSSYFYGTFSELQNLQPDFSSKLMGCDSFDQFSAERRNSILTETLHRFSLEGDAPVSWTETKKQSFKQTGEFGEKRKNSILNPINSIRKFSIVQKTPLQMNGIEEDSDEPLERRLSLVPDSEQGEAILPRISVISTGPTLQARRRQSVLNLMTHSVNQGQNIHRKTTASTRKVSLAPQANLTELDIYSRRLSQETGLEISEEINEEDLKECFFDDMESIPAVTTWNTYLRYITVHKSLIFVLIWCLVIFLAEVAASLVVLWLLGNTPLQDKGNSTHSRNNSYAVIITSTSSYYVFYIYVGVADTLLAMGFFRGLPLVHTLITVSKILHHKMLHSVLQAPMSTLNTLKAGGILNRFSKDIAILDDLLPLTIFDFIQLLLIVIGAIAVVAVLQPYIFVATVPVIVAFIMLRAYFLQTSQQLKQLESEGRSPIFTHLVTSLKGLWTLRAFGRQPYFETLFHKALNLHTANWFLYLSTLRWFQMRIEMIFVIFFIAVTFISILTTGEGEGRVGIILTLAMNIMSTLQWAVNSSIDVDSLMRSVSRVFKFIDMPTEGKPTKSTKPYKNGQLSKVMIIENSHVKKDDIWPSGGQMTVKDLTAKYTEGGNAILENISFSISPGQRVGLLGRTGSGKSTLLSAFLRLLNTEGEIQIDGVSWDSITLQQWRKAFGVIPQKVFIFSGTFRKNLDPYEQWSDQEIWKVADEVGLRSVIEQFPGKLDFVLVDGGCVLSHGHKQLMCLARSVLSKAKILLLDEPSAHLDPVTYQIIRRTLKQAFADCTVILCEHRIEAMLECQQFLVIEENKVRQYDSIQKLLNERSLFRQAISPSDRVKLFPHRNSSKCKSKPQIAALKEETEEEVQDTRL

Here's what some known entries look like.
Compound: O=S(=O)(Nc1n[nH]cc1-c1ccccc1)c1ccccc1
Emax: < 30%

Compound: C=C(C)c1cn(-c2cccc(Cl)c2)nc1NS(=O)(=O)c1ccccc1
Emax: 30 to 60%

Prompt: Recorded Emax for "Cc1ccc(-c2nc(NS(=O)(=O)c3ccccc3)cc(C)c2C)cc1C" , please?
Response: > 60%

Prompt: // same read-out, input: O=S(=O)(NC1=NC(c2ccccc2)C=C(c2ccccc2)S1)c1ccccc1 (stereo not drawn)
Response: 30 to 60%

Prompt: // same read-out, input: "CCCN(C)C(=O)c1sc(NS(=O)(=O)c2ccccc2)nc1-c1ccccc1"
Response: < 30%

Prompt: // same read-out, input: CC1CN(c2nc(NS(=O)(=O)c3ccccc3)cc(Oc3ccccc3)n2)C(C)(C)C1 (stereo not drawn)
Response: < 30%

Prompt: // same read-out, input: "CCCc1sc(NS(=O)(=O)c2ccccc2)nc1-c1ccc(OC)cc1"
Response: > 60%

Prompt: // same read-out, input: "Cc1cc(C)cc(-c2nc(NS(=O)(=O)c3ccccc3)cc(C)c2C)c1"
Response: > 60%

Prompt: // same read-out, input: "COc1ccccc1-c1cc(NS(=O)(=O)c2ccccc2)nn1-c1c(C)cc(C)cc1C"
Response: > 60%

Prompt: // same read-out, input: CC1CN(c2cc(NS(=O)(=O)c3ccccc3)nc(Oc3ccccc3)n2)C(C)(C)C1 (stereo not drawn)
Response: 30 to 60%

Prompt: // same read-out, input: "O=S(=O)(Nc1nc(Oc2ccccc2)nc(-c2ccccc2)n1)c1ccccc1"
Response: 30 to 60%

Prompt: // same read-out, input: "Cc1ccc(NS(=O)(=O)c2ccccc2)nc1-c1cccc(C)c1C"
Response: > 60%
